IC50 data for rat steroid 17-20 lyase (Rattus norvegicus, UniProt P11715) follow.
Counter-ions that a name gives are not always drawn.
attribute.measured: IC50 (nM)

>>> obs_value("CC(c1ccc2c(c1)Cc1ccccc1-2)n1ccnc1 (stereo not shown) [Example 2, hydrochloride]")
4
>>> obs_value("CC(C)(c1ccc2c(c1)Cc1ccccc1-2)n1ccnc1")
5
>>> obs_value("CC(c1ccc2c(c1)sc1ccccc12)n1ccnc1 (stereo not shown)")
5.7
>>> obs_value("CC(c1ccc2c(c1)Nc1ccccc1S2)n1ccnc1 (stereo not shown)")
6.9
